Reference source: paper PMC6696115

In what follows, each item is paired with its MIC for Escherichia coli ATCC 25922.

The examples below pair each entry with its known result.
Compound: COc1ccc(C=Nc2c(C)n(C)n(-c3ccccc3)c2=O)cc1
MIC: > 200 µg/mL
//
Compound: Cc1c(N=Cc2cccc([N+](=O)[O-])c2)c(=O)n(-c2ccccc2)n1C
MIC: > 200 µg/mL
//
Compound: Cc1c(N=CC=Cc2ccccc2)c(=O)n(-c2ccccc2)n1C
MIC: 22.6 µg/mL

Any idea what MIC came out for Cc1c(N=Cc2ccc(O)c(O)c2)c(=O)n(-c2ccccc2)n1C on Escherichia coli ATCC 25922?
> 200 µg/mL

# value lookup — system Escherichia coli ATCC 25922, readout MIC, item O=C(O)c1cn(C2CC2)c2cc(N3CCNCC3)c(F)cc2c1=O [CP, ciprofloxacin, reference compound]
0.15 µg/mL

What measured MIC is associated with COc1cc(C=Nc2c(C)n(C)n(-c3ccccc3)c2=O)cc(OC)c1O on Escherichia coli ATCC 25922?
> 200 µg/mL

Report MIC for Cc1c(N=Cc2cc([N+](=O)[O-])ccc2O)c(=O)n(-c2ccccc2)n1C tested on Escherichia coli ATCC 25922.
47.7 µg/mL

Requested read-out MIC, target or system Escherichia coli ATCC 25922, entry Cc1c(N=Cc2ccccc2O)c(=O)n(-c2ccccc2)n1C
49.8 µg/mL

Which measured MIC belongs to COc1ccc(C=Nc2c(C)n(C)n(-c3ccccc3)c2=O)cc1O , tested on Escherichia coli ATCC 25922?
> 200 µg/mL

Hi! What's the reported MIC for Cc1c(N=Cc2ccccc2)c(=O)n(-c2ccccc2)n1C on Escherichia coli ATCC 25922?
> 200 µg/mL

For the record Cc1c(/N=C/c2ccco2)c(=O)n(-c2ccccc2)n1C , what value of MIC is listed for Escherichia coli ATCC 25922?
> 200 µg/mL
